- Measured Target: CGRP receptor of pig coronary artery (pig)
- Measurement Notes: displacement of 125I-[His10]-h-αCGRP from pig coronary artery membranes
No end group written: not given here.
Property: IC50 (nM)

VTHRLAGLLSRSGGMVKSNFVPTNVGSKAF (peptide, UniProt P10092 89-118, looked up, Calcitonin gene-related peptide 2 N,N-dibenzyl) [dibenzyl-h-β-CGRP(8-37)] | 0.73

[P] VTHRLAGLLSRSGGMVKSNFVPTNVGSKAF (peptide, UniProt P10092 89-118, looked up, Calcitonin gene-related peptide 2 N-alpha-benzoyl) [N-α-benzoyl-h-β-CGRP (8-37)]
[Q] VTHRLAGLLSRSGGMVKSNFVPTNVGSKAF (ends and bridges not checked) [h-β-CGRP (8-37)]
[R] VTHRLAGLLSRSGGMVKSNFVPTNVGSKAF (peptide, UniProt P10092 89-118, looked up, Calcitonin gene-related peptide 2 N-alpha-benzyl) [N-α-benzyl-h-β-CGRP (8-37)]
Ask | # desc sort on IC50 across 3 binders Response format: the labels, sorted as the prompt asks.
Reply | Q, R, P
